- Test system: CCRF-CEM
- test protocol: Growth inhibition in CCRF-CEM cells
- Format: functional
- cond: Homo sapiens
quantity kind: GI50 (nM)

1. COc1ccc(-n2cnnc2-c2cc(OC)c(OC)c(OC)c2)cc1
2. COc1cc(-c2nncn2-c2ccc3c(ccn3C)c2)cc(OC)c1OC
3. COc1cc(-c2nncn2-c2ccc(N(C)C)cc2)cc(OC)c1OC
4. COc1ccc(-n2cnnc2-c2cc(OC)c(OC)c(OC)c2)cc1O
Request: Returns the items ordered by GI50, from maximum to minimum. When ranking, write the labels in the order the request describes.
Response: 1, 4, 3, 2

----------
- Test system: UACC-62
- test protocol: Growth inhibition in UACC62 cells
- Format: functional
- cond: Homo sapiens
quantity kind: GI50 (nM)
Please reply with the bare figure in nM and do not write the unit itself.

Sample answers from the record:
INSERT INTO measurements (structure_string, value) VALUES
  ('COc1ccc(-n2cnnc2-c2cc(OC)c(OC)c(OC)c2)cc1F', 3630),
  ('COc1cc(-c2nncn2-c2ccc(N(C)C)cc2)cc(OC)c1OC', 95.5),
  ('COc1ccc(-n2cnnc2-c2cc(OC)c(OC)c(OC)c2)cc1O', 407);

Now take the following molecule into account.
Request: Item COc1ccc(-n2cnnc2-c2cc(OC)c(OC)c(OC)c2)cc1 has what recorded GI50?
Response: 3240

----------
Examples of molecules with documented GI50 follow.
- System: SF-268
- test protocol: Growth inhibition in SF268 cells
- Assay type: functional
- cond: Homo sapiens
Record the value in nM, omitting the unit from your answer.

# example entries with known answers
INSERT INTO assay_data (structure_string, value) VALUES
  ('COc1ccc(-n2cnnc2-c2cc(OC)c(OC)c(OC)c2)cc1O', 257),
  ('COc1ccc(-n2cnnc2-c2cc(OC)c(OC)c(OC)c2)cc1', 5890),
  ('COc1cc(-c2nncn2-c2ccc(N(C)C)cc2)cc(OC)c1OC', 34.7);

Request: # lookup: GI50 of COc1ccc(-n2cnnc2-c2cc(OC)c(OC)c(OC)c2)cc1F
Response: 9330

----------
- Tested on: M14
- test protocol: Growth inhibition in M14 cells
- Format: functional
- cond: Homo sapiens
// GI50 lookup, one value per entry
# unit: nM | format: bare number

Answered cases to consult:
INSERT INTO assay_data (structure_string, value) VALUES
  ('COc1ccc(-n2cnnc2-c2cc(OC)c(OC)c(OC)c2)cc1O', 295),
  ('COc1ccc(-n2cnnc2-c2cc(OC)c(OC)c(OC)c2)cc1', 1950),
  ('COc1ccc(-n2cnnc2-c2cc(OC)c(OC)c(OC)c2)cc1F', 2240),
  ('COc1cc(-c2nncn2-c2ccc3c(ccn3C)c2)cc(OC)c1OC', 18.6);

Request: Which GI50 value is on record for COc1cc(-c2nncn2-c2ccc(N(C)C)cc2)cc(OC)c1OC ?
Response: 50.1

----------
- Tested on: SK-OV-3
- test protocol: Growth inhibition in SKOV3 cells
- Format: functional
- cond: Homo sapiens
quantity kind: GI50 (µM)

Solved cases below.
INSERT INTO assay_data (structure_string, study_system, unit_symbol, value) VALUES
  ('COc1ccc(-n2cnnc2-c2cc(OC)c(OC)c(OC)c2)cc1F', 'SK-OV-3', 'µM', 8.32),
  ('COc1ccc(-n2cnnc2-c2cc(OC)c(OC)c(OC)c2)cc1O', 'SK-OV-3', 'µM', 0.316);

1. COc1cc(-c2nncn2-c2ccc3c(ccn3C)c2)cc(OC)c1OC
2. COc1ccc(-n2cnnc2-c2cc(OC)c(OC)c(OC)c2)cc1
3. COc1cc(-c2nncn2-c2ccc(N(C)C)cc2)cc(OC)c1OC
Request: Arrange the 3 compounds by rising GI50, starting with the smallest. Provide the labels, sequenced as the question asks.
Response: 1, 3, 2
(1: 0.0316 µM, 3: 0.347 µM, 2: 6.46 µM)

----------
We begin with a simple list: items and their reported GI50.
- System: UACC-257
- test protocol: Growth inhibition in UACC257 cells
- Type: functional
- cond: Homo sapiens
State just the number; it will be interpreted in µM.

INSERT INTO assay_data (structure_string, quantity_kind, value) VALUES
  ('COc1cc(-c2nncn2-c2ccc(N(C)C)cc2)cc(OC)c1OC', 'GI50', 100),
  ('COc1ccc(-n2cnnc2-c2cc(OC)c(OC)c(OC)c2)cc1', 'GI50', 3.98);

From here, focus on the item given below.
Request: Requested read-out: GI50. Entry: COc1cc(-c2nncn2-c2ccc3c(ccn3C)c2)cc(OC)c1OC
Response: 0.245

----------
- Tested on: LOX IMVI
- test protocol: Growth inhibition in LOX IMVI cells
- Assay type: functional
- cond: Homo sapiens
Listed compounds paired with reported GI50
Just the number in nM, nothing appended.

Some solved cases for reference:
INSERT INTO assay_data (structure_string, unit_symbol, value) VALUES
  ('COc1cc(-c2nncn2-c2ccc3c(ccn3C)c2)cc(OC)c1OC', 'nM', 56.2),
  ('COc1ccc(-n2cnnc2-c2cc(OC)c(OC)c(OC)c2)cc1', 'nM', 4370),
  ('COc1ccc(-n2cnnc2-c2cc(OC)c(OC)c(OC)c2)cc1O', 'nM', 550);

Request: So what does the record say about GI50 for COc1cc(-c2nncn2-c2ccc(N(C)C)cc2)cc(OC)c1OC ?
Response: 219

Request: Any idea what GI50 was measured for COc1ccc(-n2cnnc2-c2cc(OC)c(OC)c(OC)c2)cc1F ?
Response: 5130

----------
- Test system: PC-3
- test protocol: Growth inhibition in PC3 cells
- Type: functional
- cond: Homo sapiens
quantity kind: GI50 (µM)

Guide cases for GI50, answers given:
INSERT INTO assay_data (structure_string, quantity_kind, value) VALUES
  ('COc1cc(-c2nncn2-c2ccc3c(ccn3C)c2)cc(OC)c1OC', 'GI50', 0.0195),
  ('COc1ccc(-n2cnnc2-c2cc(OC)c(OC)c(OC)c2)cc1F', 'GI50', 3.02);

1. COc1ccc(-n2cnnc2-c2cc(OC)c(OC)c(OC)c2)cc1O
2. COc1ccc(-n2cnnc2-c2cc(OC)c(OC)c(OC)c2)cc1
Request: Between 1 and 2 , which one has the lower reported GI50 value? Kindly state the label of the option you pick.
Response: 1

----------
- System: COLO 205
- test protocol: Growth inhibition in COLO205 cells
- Type: functional
- cond: Homo sapiens
quantity kind: GI50 (µM)

INSERT INTO results (structure_string, quantity_kind, value) VALUES
  ('COc1ccc(-n2cnnc2-c2cc(OC)c(OC)c(OC)c2)cc1F', 'GI50', 3.98);

1. COc1cc(-c2nncn2-c2ccc3c(ccn3C)c2)cc(OC)c1OC
2. COc1ccc(-n2cnnc2-c2cc(OC)c(OC)c(OC)c2)cc1O
Request: Looking at recorded values for GI50, does 1 or 2 come in lower? Your choice should be expressed through its label.
Response: 1
(1: 0.0288 µM, 2: 1.17 µM)
